Reference source for all entries: ChEMBL document CHEMBL5236552

# targetOrTestSystem: CYP3A4 (Homo sapiens)
# Sequence (P08684 whole entry): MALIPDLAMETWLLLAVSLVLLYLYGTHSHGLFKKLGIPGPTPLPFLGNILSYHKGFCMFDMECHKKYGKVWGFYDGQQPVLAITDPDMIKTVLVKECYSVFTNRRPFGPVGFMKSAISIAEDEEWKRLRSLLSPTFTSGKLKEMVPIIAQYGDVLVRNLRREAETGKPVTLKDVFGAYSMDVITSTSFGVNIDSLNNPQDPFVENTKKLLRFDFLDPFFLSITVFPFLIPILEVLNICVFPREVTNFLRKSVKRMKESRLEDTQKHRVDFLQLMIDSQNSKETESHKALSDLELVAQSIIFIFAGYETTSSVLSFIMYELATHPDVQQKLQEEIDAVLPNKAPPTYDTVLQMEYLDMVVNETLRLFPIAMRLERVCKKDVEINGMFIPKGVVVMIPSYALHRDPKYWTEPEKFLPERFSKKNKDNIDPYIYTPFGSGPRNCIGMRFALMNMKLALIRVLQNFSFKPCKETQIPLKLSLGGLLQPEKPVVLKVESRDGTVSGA
# assayDetails: Inhibition of CYP3A4 (unknown origin) at 10 uM using testosterone as substrate incubated for 60 mins by LC-MS/MS analysis relative to control
# Assay type: ADME
# conditionsUsed: probe testosterone
Kind request: treat 30% as inclusive, so inhibition at 1 h, 10 µM at 30% or higher is rule met, anything lower is rule not met.

                                   molecule    labelclass
0  O=C(c1cccnc1-c1ccncc1)N1CCC(O)(Cc2ccccn2)CC1  rule not met
1  Cc1cccc(-c2ccncc2)c1C(=O)N1CCC(O)(Cc2ccccc2)CC1      rule met
2  O=C(c1ccccc1-c1ccncn1)N1CCC(O)(Cc2ccccc2)CC1  rule not met
3  O=C(c1cccnc1-c1ccncn1)N1CCC(O)(Cc2ccccc2)CC1  rule not met
4  O=C(c1ccccc1-c1ccncc1)N1CCC(O)(Cc2ccccc2)CC1      rule met

Task item: Hi, just wondering whether O=C(c1cccnc1-c1ccncc1)N1CCC(O)(Cc2ccccc2)CC1 shows inhibition at 1 h, 10 µM of 30% or higher.
Reply: rule not met
